Value source: patent US9409952B2

Reported Papp at 18 hours, 50 µM values follow for various compounds
ASSAY SUMMARY: PAMPA (parallel artificial membrane permeability assay)
Assay type: in vitro ADME
PARTICULARS: PAMPA; membrane permeation rate (Pe); 50 mM MOPSO buffer pH 6.5 with 5.0% glycocholic acid, 37° C., 18 hours; read-out: iPAMPA Pe
Starred links: 1 amine or outer side, 2 acyl side, 3 side chain; linkers in the order of their positions; H or OH if unused. Positions of bridges follow the written chain, without caps; N, C: chain ends. Non-standard residues stand in square brackets, D forms with d. Residues, ends and D or L forms follow the SMILES beside them. *: point of attachment. Phe(3-(CH2)4CO) = O=C([C@H](Cc1cccc(CCCCC(=O)[*:3])c1)N[*:1])[*:2]; NMeF = CN[C@@H](Cc1ccccc1)C(=O)O; NMeI = CC[C@H](C)[C@H](NC)C(=O)O; NMeβAla = CN(CCC(=O)[*:2])[*:1]; NMeL = CN[C@@H](CC(C)C)C(=O)O; NMeV = CN[C@H](C(=O)O)C(C)C; NMeA = CN[C@@H](C)C(=O)O; Piperidide = C1CCN(*)CC1; Sar = CNCC(=O)O; tBu = CC(C)(C)*
A number alone suffices; assume ×10⁻⁶ cm/s.

Qu. Which Papp at 18 hours, 50 µM value belongs to CC[C@H](C)[C@H]1C(=O)N[C@@H](C)C(=O)N(C)[C@@H](CC(C)C)C(=O)N[C@@H](COC(C)(C)C)C(=O)N(C)[C@@H](CC(C)C)C(=O)N[C@H](C(=O)N2CCCCC2)CC(=O)N(C)CCC(=O)N[C@@H](Cc2ccccc2)C(=O)N(C)[C@@H](Cc2ccccc2)C(=O)N(C)[C@@H](CC(C)C)C(=O)N[C@@H]([C@@H](C)O)C(=O)N(C)[C@@H](C)C(=O)N1C [DP-92] ([NMeβAla]F[NMeF][NMeL]T[NMeA][NMeI]A[NMeL]S(tBu)[NMeL]D-Piperidide; lactam N-12) ?
Ans. 26

Qu. Param item: CC(C)C[C@H]1C(=O)N[C@@H](C(C)C)C(=O)N(C)[C@@H](C)C(=O)N[C@@H]([C@@H](C)O)C(=O)N(C)[C@@H](C)C(=O)N[C@H](C(=O)N2CCCCC2)CC(=O)N(C)CCC(=O)N(C)[C@@H](C)C(=O)N(C)[C@@H](Cc2ccccc2)C(=O)N[C@@H](C)C(=O)N(C)[C@@H](CC(C)C)C(=O)N(C)CC(=O)N1C [DP-511] ([NMeβAla][NMeA][NMeF]A[NMeL][Sar][NMeL]V[NMeA]T[NMeA]D-Piperidide; lactam N-12)
Ans. 1.1

Qu. Param item: CC[C@H](C)[C@@H]1NC(=O)[C@H](Cc2ccccc2)NC(=O)[C@@H]2CCCN2C(=O)[C@H](CC(C)C)N(C)C(=O)[C@H](Cc2ccccc2)NC(=O)[C@H](CC(C)C)NC(=O)[C@H]([C@@H](C)O)NC(=O)CCCCc2cccc(c2)C[C@@H](C(=O)N2CCCCC2)NC(=O)[C@H](CC(C)C)NC(=O)CN(C)C1=O [DP-901] (TLF[NMeL]PFI[Sar]L[Phe(3-(CH2)4CO)]-Piperidide; lactam N-10)
Ans. 23

Qu. Param item: CC[C@H](C)[C@H](NC(=O)[C@@H](NC(=O)[C@H](CC(C)C)N(C)C(=O)[C@@H](NC(=O)[C@@H]1CC(=O)N(C)[C@@H](C)C(=O)N[C@@H](CC(C)C)C(=O)N(C)[C@@H](Cc2ccccc2)C(=O)N[C@@H](CC(C)C)C(=O)N(C)CC(=O)N(C)[C@@H](CC(C)C)C(=O)N[C@@H]([C@@H](C)CC)C(=O)N(C)[C@@H](CC(C)C)C(=O)N1)[C@@H](C)O)C(C)C)C(=O)N1CCCCC1 [DP-940] ([NMeA]L[NMeF]L[Sar][NMeL]I[NMeL]DT[NMeL]VI-Piperidide; lactam N-9)
Ans. 0.14

Qu. Param item: CC[C@H](C)[C@@H]1NC(=O)[C@H](CC(C)C)N(C)C(=O)CCN(C)C(=O)C[C@@H](C(=O)N(C)[C@@H](Cc2ccccc2)C(=O)N(C)[C@@H](Cc2ccccc2)C(=O)N[C@@H](C)C(=O)N2CCCCC2)NC(=O)[C@H](C(C)C)N(C)C(=O)[C@H](CC(C)C)N(C)C(=O)CN(C)C(=O)[C@H]([C@@H](C)O)NC(=O)[C@H](Cc2ccccc2)NC(=O)[C@H](C(C)C)N(C)C1=O [DP-496] ([NMeβAla][NMeL]I[NMeV]FT[Sar][NMeL][NMeV]D[NMeF][NMeF]A-Piperidide; lactam N-10)
Ans. 23

###

Reported Papp at 18 hours, 50 µM values follow for various compounds
ASSAY SUMMARY: PAMPA (parallel artificial membrane permeability assay)
Assay type: in vitro ADME
PARTICULARS: PAMPA; membrane permeation rate (Pe); 50 mM MOPSO buffer pH 6.5 with 5.0% glycocholic acid, 37° C., 18 hours; read-out: iPAMPA Pe
Positions of bridges follow the written chain, without caps; N, C: chain ends. Non-standard residues stand in square brackets, D forms with d. Residues, ends and D or L forms follow the SMILES beside them. *: point of attachment. NMeL = CN[C@@H](CC(C)C)C(=O)O; NMeV = CN[C@H](C(=O)O)C(C)C; Piperidide = C1CCN(*)CC1; dNMeA = CN[C@H](C)C(=O)O; Sar = CNCC(=O)O
A number alone suffices; assume ×10⁻⁶ cm/s.

CC(C)C[C@@H]1NC(=O)[C@H](CC(C)C)N(C)C(=O)[C@H](C)NC(=O)[C@H](C(C)C)N(C)C(=O)CN(C)C(=O)[C@H](Cc2ccccc2)NC(=O)[C@H]([C@@H](C)O)NC(=O)[C@H](CC(C)C)N(C)C(=O)[C@@H](C)N(C)C(=O)C[C@@H](C(=O)N2CCCCC2)NC(=O)[C@H](CC(C)C)N(C)C1=O [DP-418] ([dNMeA][NMeL]TF[Sar][NMeV]A[NMeL]L[NMeL]D-Piperidide; lactam N-11) = 28

Could you now look at the following compound, please?
Qu. Which Papp at 18 hours, 50 µM value belongs to CC[C@H](C)[C@@H]1NC(=O)[C@@H](C)NC(=O)C[C@@H](C(=O)N2CCCCC2)NC(=O)[C@H](Cc2ccccc2)NC(=O)[C@H]([C@@H](C)O)NC(=O)[C@H](C)NC(=O)[C@H](Cc2ccccc2)NC(=O)[C@H](CC(C)C)NC(=O)[C@H](CC(C)C)N(C)C(=O)[C@H](Cc2ccccc2)NC(=O)[C@H](CC(C)C)NC1=O [DP-415] ([dA]ILF[NMeL]LFATFD-Piperidide; lactam N-11) ?
Ans. 2.9

###

ASSAY SUMMARY: Metabolic stability in human hepatic microsome
Assay type: in vitro ADME
PARTICULARS: microsomes, pH 7.4; human hepatic microsome, NADPH(+); read-out: CL NADPH(+)
Starred links: 1 amine or outer side, 2 acyl side, 3 side chain; linkers in the order of their positions; H or OH if unused. Positions of bridges follow the written chain, without caps; N, C: chain ends. Non-standard residues stand in square brackets, D forms with d. Residues, ends and D or L forms follow the SMILES beside them. *: point of attachment. Phe(4-(CH2)5CO) = O=C([C@H](Cc1ccc(CCCCCC(=O)[*:3])cc1)N[*:1])[*:2]; NMeF = CN[C@@H](Cc1ccccc1)C(=O)O; NMeI = CC[C@H](C)[C@H](NC)C(=O)O; NMeβAla = CN(CCC(=O)[*:2])[*:1]; NMeL = CN[C@@H](CC(C)C)C(=O)O; NMeA = CN[C@@H](C)C(=O)O; Piperidide = C1CCN(*)CC1; Aib = CC(C)(N)C(=O)O; Sar = CNCC(=O)O; tBu = CC(C)(C)*
ENDPOINT: microsomal CLint at 1 uM (µL/min/mg)
A number alone suffices; assume µL/min/mg.

CC(C)C[C@H]1C(=O)N(C)[C@@H](CC(C)C)C(=O)N[C@@H]([C@@H](C)O)C(=O)N(C)[C@@H](C)C(=O)N[C@H](C(=O)N(C)[C@@H](Cc2ccccc2)C(=O)N(C)[C@@H](Cc2ccccc2)C(=O)N[C@@H](C)C(=O)N2CCCCC2)CC(=O)N(C)CCC(=O)N(C)CC(=O)N(C)[C@@H](Cc2ccccc2)C(=O)N[C@@H](C)C(=O)N1C [DP-398] ([NMeβAla][Sar][NMeF]A[NMeL][NMeL]T[NMeA]D[NMeF][NMeF]A-Piperidide; lactam N-9) = 123
CC[C@H](C)[C@H](NC(=O)[C@H](CC(C)C)NC(=O)[C@H](CC(C)C)N(C)C(=O)[C@@H](NC(=O)[C@@H]1CCCN1C(=O)[C@@H]1CC(=O)N(C)CCC(=O)N[C@@H](CC(C)C)C(=O)N(C)[C@@H](CC(C)C)C(=O)N[C@@H]([C@@H](C)O)C(=O)N(C)[C@@H](C)C(=O)N[C@@H]([C@@H](C)CC)C(=O)N(C)[C@@H](CC(C)C)C(=O)N(C)[C@@H](CC(C)C)C(=O)N1)[C@@H](C)CC)C(=O)N1CCCCC1 [DP-937] ([NMeβAla]L[NMeL]T[NMeA]I[NMeL][NMeL]DPI[NMeL]LI-Piperidide; lactam N-9) = 164
CC[C@H](C)[C@@H]1NC(=O)CCCCCc2ccc(cc2)C[C@@H](C(=O)N2CCCCC2)NC(=O)[C@H](Cc2ccccc2)N(C)C(=O)[C@H](CC(C)C)N(C)C(=O)[C@H](C)N(C)C(=O)[C@H](Cc2ccccc2)N(C)C(=O)[C@H]([C@@H](C)O)NC(=O)[C@H](CC(C)C)N(C)C(=O)[C@H](C)N(C)C(=O)[C@H](CC(C)C)N(C)C1=O [DP-868] (I[NMeL][NMeA][NMeL]T[NMeF][NMeA][NMeL][NMeF][Phe(4-(CH2)5CO)]-Piperidide; lactam N-10) = 61

Qu. Which microsomal CLint at 1 uM value belongs to CC[C@H](C)[C@H]1C(=O)NCC(=O)N(C)[C@@H](CC(C)C)C(=O)N[C@@H]([C@@H](C)O)C(=O)N2CCC[C@H]2C(=O)NC(C)(C)C(=O)N[C@H](C(=O)N2CCCCC2)CC(=O)N(C)[C@@H](C)C(=O)N[C@@H](Cc2ccccc2)C(=O)N(C)[C@@H](CC(C)C)C(=O)N[C@@H](CC(C)C)C(=O)N1C [DP-564] ([NMeA]F[NMeL]L[NMeI]G[NMeL]TP[Aib]D-Piperidide; lactam N-11) ?
Ans. 80

Qu. Param item: CC(C)C[C@@H]1NC(=O)C[C@@H](C(=O)N2CCCCC2)NC(=O)[C@H](COC(C)(C)C)NC(=O)[C@H]([C@@H](C)O)NC(=O)[C@H](Cc2ccccc2)N(C)C(=O)[C@H](CC(C)C)N(C)C(=O)CN(C)C1=O [DP-718] (L[Sar][NMeL][NMeF]TS(tBu)D-Piperidide; lactam N-7)
Ans. 99
